Test system: Plasmodium berghei
Test description: Luciferase/luciferin-expressing antifolate-resistant parasites were used to infect a culture of HepG2 cells that were pre-incubated with compounds. Infected hepatocytes emit light due to the luciferase reaction. Assay results are presented as the percent inhibition of light emission compared to control. […]
Type: functional
Test parameters: sporozoite, HEPG2TOX_HILL_SLOPE 1.13, HEPG2TOX_R_SQUARED 0.879, read-out: LUCIFERASE INFECTION ASSAY - IC50
Quantity kind: IC50

Give the value of IC50 reported for the following: "COc1cc(-c2nccc3n[nH]c(C)c23)cc(OC)c1OC"
> 10 µM

----------
System: Plasmodium berghei
Test description: Luciferase/luciferin-expressing antifolate-resistant parasites were used to infect a culture of HepG2 cells that were pre-incubated with compounds. Infected hepatocytes emit light due to the luciferase reaction. Assay results are presented as the percent inhibition of light emission compared to control. […]
Type: functional
Test parameters: sporozoite, HEPG2TOX_HILL_SLOPE 1.51, HEPG2TOX_R_SQUARED 0.867, PBLUC_HILL_SLOPE 1.78, PBLUC_R_SQUARED 0.654, read-out: LUCIFERASE INFECTION ASSAY - IC50
Quantity kind: pIC50
Please report pIC50 as the negative decimal logarithm of the molar concentration, giving only the number.

Name the value of pIC50 reported for "C=C(C)COc1ccc(-c2[nH]nc(C)c2-c2ccc(OC)c(OC)c2)c(O)c1" when tested on Plasmodium berghei.
6.27

----------
Test system: Plasmodium berghei
Test description: Luciferase/luciferin-expressing antifolate-resistant parasites were used to infect a culture of HepG2 cells that were pre-incubated with compounds. Infected hepatocytes emit light due to the luciferase reaction. Assay results are presented as the percent inhibition of light emission compared to control. […]
Assay type: functional
Test parameters: sporozoite, PBLUC_HILL_SLOPE 2.38, PBLUC_R_SQUARED 0.305, read-out: LUCIFERASE INFECTION ASSAY - IC50
Quantity kind: pIC50
Reminder that pIC50 is minus the log10 of a molar concentration.

Kindly indicate its recorded pIC50. Item: "CC(=O)c1ccc(NC(=O)c2cc(-c3cc(C)ccc3C)nc3ccccc23)cc1"
5.34

----------
Test system: Plasmodium berghei
Test description: Luciferase/luciferin-expressing antifolate-resistant parasites were used to infect a culture of HepG2 cells that were pre-incubated with compounds. Infected hepatocytes emit light due to the luciferase reaction. Assay results are presented as the percent inhibition of light emission compared to control. […]
Type: functional
Test parameters: sporozoite, FFLUC_HILL_SLOPE 2.23, FFLUC_R_SQUARED 0.6, read-out: LUCIFERASE INFECTION ASSAY - IC50
pIC50: −log10 of the molar value.
Quantity kind: pIC50

For the compound "COc1ccc2c(CC(=O)N(c3cc(C)cc(C)c3)c3nc(-c4ccc(Br)cc4)cs3)coc2c1" , give its measured pIC50 value.
< 5.00

----------
Tested on: Plasmodium berghei
Test description: Luciferase/luciferin-expressing antifolate-resistant parasites were used to infect a culture of HepG2 cells that were pre-incubated with compounds. Infected hepatocytes emit light due to the luciferase reaction. Assay results are presented as the percent inhibition of light emission compared to control. […]
Type: functional
Test parameters: sporozoite, HEPG2TOX_HILL_SLOPE 0.0281, HEPG2TOX_R_SQUARED 0.0269, read-out: LUCIFERASE INFECTION ASSAY - IC50
Quantity kind: IC50

Return value of IC50 for input "OCCNCc1cc(Cl)ccc1OCc1ccc(Cl)cc1Cl" , no commentary.
> 8.31 µM

----------
System: Plasmodium berghei
Test description: Luciferase/luciferin-expressing antifolate-resistant parasites were used to infect a culture of HepG2 cells that were pre-incubated with compounds. Infected hepatocytes emit light due to the luciferase reaction. Assay results are presented as the percent inhibition of light emission compared to control. […]
Assay type: functional
Test parameters: sporozoite, HEPG2TOX_HILL_SLOPE 9.54, HEPG2TOX_R_SQUARED 0.431, PBLUC_HILL_SLOPE 1.32, 1.56, PBLUC_R_SQUARED 0.780, 0.216, read-out: LUCIFERASE INFECTION ASSAY - IC50
Quantity kind: IC50 (µM)
Provide only the numeric value, understood in µM.

For the compound CC(c1ccc(-n2cncn2)cc1)N(C)c1ncnc2ccsc12 (stereo unspecified) , give its reported IC50.
3.71

----------
Test system: Plasmodium berghei
Test description: Luciferase/luciferin-expressing antifolate-resistant parasites were used to infect a culture of HepG2 cells that were pre-incubated with compounds. Infected hepatocytes emit light due to the luciferase reaction. Assay results are presented as the percent inhibition of light emission compared to control. […]
Type: functional
Test parameters: sporozoite, HEPG2TOX_HILL_SLOPE 1.78, HEPG2TOX_R_SQUARED 0.895, read-out: LUCIFERASE INFECTION ASSAY - IC50
Quantity kind: IC50

Output IC50 of "CCCCc1[nH]nc2ccnc(-c3cncc(OC)c3)c12"
> 10 µM

----------
Test system: Plasmodium berghei
Test description: Luciferase/luciferin-expressing antifolate-resistant parasites were used to infect a culture of HepG2 cells that were pre-incubated with compounds. Infected hepatocytes emit light due to the luciferase reaction. Assay results are presented as the percent inhibition of light emission compared to control. […]
Format: functional
Test parameters: sporozoite, FFLUC_HILL_SLOPE 0.605, FFLUC_R_SQUARED 0.525, HEPG2TOX_HILL_SLOPE 11.4, HEPG2TOX_R_SQUARED 0.983, PBLUC_HILL_SLOPE 12.9, PBLUC_R_SQUARED 0.58, read-out: LUCIFERASE INFECTION ASSAY - IC50
Quantity kind: IC50 (µM)
Give just the numeric value; µM need not be written.

# return IC50 of CC(NS(=O)(=O)c1ccc(-n2ncc(Cl)c(Cl)c2=O)cc1)c1ccc2ccccc2c1 (stereo unspecified) (system: Plasmodium berghei)
3.22

----------
Test system: Plasmodium berghei
Test description: Luciferase/luciferin-expressing antifolate-resistant parasites were used to infect a culture of HepG2 cells that were pre-incubated with compounds. Infected hepatocytes emit light due to the luciferase reaction. Assay results are presented as the percent inhibition of light emission compared to control. […]
Type: functional
Test parameters: sporozoite, HEPG2TOX_HILL_SLOPE 7.57, HEPG2TOX_R_SQUARED 0.801, PBLUC_HILL_SLOPE 3.36, PBLUC_R_SQUARED 0.445, read-out: LUCIFERASE INFECTION ASSAY - IC50
Quantity kind: IC50 (nM)
Use nM as the unit, but write only the number.

Quick one: give measured IC50 for "O=C(Nc1cc(S(=O)(=O)c2ccccc2)cs1)c1ccc(Cl)cc1"
2850

----------
Test system: Plasmodium berghei
Test description: Luciferase/luciferin-expressing antifolate-resistant parasites were used to infect a culture of HepG2 cells that were pre-incubated with compounds. Infected hepatocytes emit light due to the luciferase reaction. Assay results are presented as the percent inhibition of light emission compared to control. […]
Assay type: functional
Test parameters: sporozoite, HEPG2TOX_HILL_SLOPE 12.7, HEPG2TOX_R_SQUARED 0.848, PBLUC_HILL_SLOPE 19.5, PBLUC_R_SQUARED 0.366, read-out: LUCIFERASE INFECTION ASSAY - IC50
Quantity kind: IC50 (µM)
API: value field is a number in µM; no unit string.

// Input: "CC(=O)c1cccc(NC(=O)Nc2ccc3nc(Cc4ccccc4)nn3c2)c1" . Output its IC50 only.
3.69

----------
System: Plasmodium berghei
Test description: Luciferase/luciferin-expressing antifolate-resistant parasites were used to infect a culture of HepG2 cells that were pre-incubated with compounds. Infected hepatocytes emit light due to the luciferase reaction. Assay results are presented as the percent inhibition of light emission compared to control. […]
Assay type: functional
Test parameters: sporozoite, HEPG2TOX_HILL_SLOPE 0.198, HEPG2TOX_R_SQUARED 0.716, PBLUC_HILL_SLOPE 11.9, PBLUC_R_SQUARED 0.0318, read-out: LUCIFERASE INFECTION ASSAY - IC50
Quantity kind: IC50 (µM)
Write the number in µM without appending the unit.

Answer with reported IC50 of "CCN(c1ccccc1)S(=O)(=O)c1ccc(Sc2ccc(C)cc2C)nc1"
9.38

----------
Test system: Plasmodium berghei
Test description: Luciferase/luciferin-expressing antifolate-resistant parasites were used to infect a culture of HepG2 cells that were pre-incubated with compounds. Infected hepatocytes emit light due to the luciferase reaction. Assay results are presented as the percent inhibition of light emission compared to control. […]
Assay type: functional
Test parameters: sporozoite, HEPG2TOX_HILL_SLOPE 2.63, HEPG2TOX_R_SQUARED 0.63, PBLUC_HILL_SLOPE 12, PBLUC_R_SQUARED 0.668, read-out: LUCIFERASE INFECTION ASSAY - IC50
Quantity kind: IC50 (µM)
Report the figure in µM without appending any unit label.

Report IC50, nothing else, for this compound: COC(=O)c1ccc(CNC(=O)NCCN2c3ccccc3CCC2C)cc1 (stereo unspecified)
3.23
